# ASSAY PROTOCOL: Biodistribution in PC-3 tumor-bearing NSG mice (Example 2)
# Assay type: in vivo
# DETAILS: male, NSG (NOD.Cg-Prkdc^scid Il2rg^tm1Wjl/SzJ), mouse, PC-3 tumor, iv, total radioactivity, 60 MIN p.i.; read-out: Biodistribution PC3 TUMOR, Mean
READOUT TYPE: tissue uptake at 1 h (%ID/g)
One number for each entry, in %ID/g.

Task item: Tell us which tissue uptake at 1 h value is on record for CC(C)C[C@@H](CN1CCC[C@H]1C(N)=O)NC(=O)[C@H](Cc1c[nH]cn1)NC(=O)CNC(=O)[C@@H](NC(=O)[C@H](C)NC(=O)[C@H](Cc1c[nH]c2ccccc12)NC(=O)[C@H](CCC(N)=O)NC(=O)[C@@H](Cc1ccccc1)NC(=O)CN1CCC(NC(=O)CN2CCN(CC(=O)O)CCN(CC(=O)O)CCN(CC(=O)O)CC2)CC1)C(C)C [^68Ga-ProBOMB2, metal not drawn]
Reply: 10.8

----------
# ASSAY PROTOCOL: Biodistribution in PC-3 tumor-bearing NRG mice (Example 1)
# Type: in vivo
# DETAILS: male, NRG (NOD.Cg-Rag1tm1Mom Il2rgtm1Wjl/SzJ), mouse, seminal glands, iv, 1.84 MBq, total radioactivity; 120 min p.i.; read-out: Biodistribution Seminal glands, Mean
READOUT TYPE: tissue uptake at 2 h (%ID/g)
One number for each entry, in %ID/g.

Task item: Tell us which tissue uptake at 2 h value is on record for CC(C)C[C@@H](CN1CCC[C@H]1C(N)=O)NC(=O)[C@H](Cc1c[nH]cn1)NC(=O)CNC(=O)[C@@H](NC(=O)[C@H](C)NC(=O)[C@H](Cc1c[nH]c2ccccc12)NC(=O)[C@H](CCC(N)=O)NC(=O)[C@@H](Cc1ccccc1)NC(=O)COCC(=O)Nc1ccc(CNC(=O)CN2CCN(CC(=O)O)CCN(CC(=O)O)CCN(CC(=O)O)CC2)cc1)C(C)C [^68Ga-ProBOMB1, metal not drawn]
Reply: 0.43

----------
# ASSAY PROTOCOL: Biodistribution in PC-3 tumor-bearing NSG mice (Example 2)
# Type: in vivo
# DETAILS: male, NSG (NOD.Cg-Prkdc^scid Il2rg^tm1Wjl/SzJ), mouse, testes, iv, total radioactivity, 120 MIN p.i.; read-out: Biodistribution TESTES, Mean
READOUT TYPE: tissue uptake at 2 h (%ID/g)
Numbers only, in %ID/g.

Task item: Tell us which tissue uptake at 2 h value is on record for CC(C)C[C@@H](CN1CCC[C@H]1C(N)=O)NC(=O)[C@H](Cc1c[nH]cn1)NC(=O)CNC(=O)[C@@H](NC(=O)[C@H](C)NC(=O)[C@H](Cc1c[nH]c2ccccc12)NC(=O)[C@H](CCC(N)=O)NC(=O)[C@@H](Cc1ccccc1)NC(=O)CN1CCC(NC(=O)CN2CCN(CC(=O)O)CCN(CC(=O)O)CCN(CC(=O)O)CC2)CC1)C(C)C [^68Ga-ProBOMB2, metal not drawn]
Reply: 0.07

----------
# ASSAY PROTOCOL: Biodistribution in PC-3 tumor-bearing NSG mice (Example 2)
# Assay type: in vivo
# DETAILS: male, NSG (NOD.Cg-Prkdc^scid Il2rg^tm1Wjl/SzJ), mouse, seminal, iv, total radioactivity, 60 MIN p.i.; read-out: Biodistribution SEMINAL, Mean
# Procedure: […]. The mice were sacrificed by CO2 inhalation at 1 h, and 2 h p.i. Blood was collected by cardiac puncture. Organs/tissues were harvested, rinsed with PBS, blotted dry, and weighed. The activity in tissues was assayed by gamma counter and expressed as the percentage injected dose per gram of tissue (% ID/g).
READOUT TYPE: tissue uptake at 1 h (%ID/g)
Numbers only, in %ID/g.

Task item: Tell us which tissue uptake at 1 h value is on record for CC(C)C[C@@H](CN1CCC[C@H]1C(N)=O)NC(=O)[C@H](Cc1c[nH]cn1)NC(=O)CNC(=O)[C@@H](NC(=O)[C@H](C)NC(=O)[C@H](Cc1c[nH]c2ccccc12)NC(=O)[C@H](CCC(N)=O)NC(=O)[C@@H](Cc1ccccc1)NC(=O)CN1CCC(NC(=O)CN2CCN(CC(=O)O)CCN(CC(=O)O)CCN(CC(=O)O)CC2)CC1)C(C)C [^68Ga-ProBOMB2, metal not drawn]
Reply: 2.44
